Read-out: Keratin 19 (KRT19), KRT19 (gene 3880)
Experiment: LTEA_HepaRG_KRT19: Life Technologies and Expression Analysis (LTEA) Assay for Keratin 19 (KRT19) using HepaRG (AID 2283512)
Settings: mRNA level, 48 h; actives raise or lower the signal
Procedure: LTEA_HepaRG is a cell based, multiplexed-readout assay that uses HepaRG, a human liver cell line, with measurements taken at 48 hours after chemical dosing on a 96-well plate.LTEA_HepaRG_KRT19 is one of 102 assay component(s) measured in the LTEA HepaRG cell culture assay. It is a marker of Cell proliferation, survival, death.Data from the assay component LTEA_HepaRG_KRT19 was analyzed into 1 endpoint. […]
Activity calls are given as the source filed them. The calls were made as follows: active = hit-call score of the fitted dose curve at least 0.9, where 1 is the maximum; inactive = score below 0.9.
Select the matching outcome among true (1) for active, false (0) for inactive

INPUT: Recorded test outcome, item `C[C@@H]1C[C@@H]([C@H](O)CC2CC(=O)NC(=O)C2)C(=O)[C@@H](C)C1`
OUTPUT: true (1)

INPUT: Recorded test outcome, item `C=CC(=O)OCCCCCC(C)C`
OUTPUT: false (0)

INPUT: Recorded test outcome, item `CC(=O)[O][Hg][c]1ccccc1`
OUTPUT: true (1)

INPUT: Recorded test outcome, item `CC(C)(C)c1cc(O)ccc1O`
OUTPUT: false (0)

INPUT: Recorded test outcome, item ClC1(Cl)C2(Cl)C3(Cl)C4(Cl)C(Cl)(Cl)C5(Cl)C3(Cl)C1(Cl)C5(Cl)C24Cl (stereo unspecified)
OUTPUT: false (0)

INPUT: Recorded test outcome, item `CN(C)N=O`
OUTPUT: false (0)

INPUT: Recorded test outcome, item `CC(C)(c1ccccc1)c1ccc(O)c(C(C)(C)c2ccccc2)c1`
OUTPUT: false (0)

INPUT: Recorded test outcome, item `Oc1cccc2cccnc12`
OUTPUT: false (0)

INPUT: Recorded test outcome, item `O=c1[nH]c(=O)[nH]c(=O)[nH]1`
OUTPUT: false (0)

INPUT: Recorded test outcome, item `CC(C)(OO)c1ccccc1`
OUTPUT: false (0)

INPUT: Recorded test outcome, item `C[C@]12CCC(=O)C[C@@H]1CC[C@@H]1[C@@H]2CC[C@]2(C)[C@@H](O)CC[C@@H]12`
OUTPUT: false (0)

INPUT: Recorded test outcome, item CC12CC1(C)C(=O)N(c1cc(Cl)cc(Cl)c1)C2=O (stereo unspecified)
OUTPUT: false (0)

INPUT: Recorded test outcome, item `O=C(O)C(F)(F)C(F)(F)C(F)(F)C(F)(F)C(F)(F)C(F)(F)F`
OUTPUT: false (0)

INPUT: Recorded test outcome, item `O=C(O)C(F)(F)C(F)(F)C(F)(F)C(F)(F)C(F)(F)C(F)(F)C(F)(F)C(F)(F)C(F)(F)C(F)(F)F`
OUTPUT: false (0)

INPUT: Recorded test outcome, item O=C1C2(Cl)C3(Cl)C4(Cl)C(Cl)(Cl)C5(Cl)C3(Cl)C1(Cl)C5(Cl)C24Cl (stereo unspecified)
OUTPUT: true (1)

INPUT: Recorded test outcome, item `O=C(Nc1ccc2[nH]ccc2c1)c1cc2cc(F)ccc2n1Cc1cccc(F)c1`
OUTPUT: true (1)

INPUT: Recorded test outcome, item `C=C(C)C(=O)[O][Sn]([CH2]CCC)([CH2]CCC)[CH2]CCC`
OUTPUT: false (0)

INPUT: Recorded test outcome, item `CC(C)(C)CC(C)(C)c1ccc(O)cc1`
OUTPUT: true (1)

INPUT: Recorded test outcome, item `ClCC(Cl)CCl`
OUTPUT: false (0)

INPUT: Recorded test outcome, item `CCCCCCCCc1ccc(O)cc1`
OUTPUT: false (0)

INPUT: Recorded test outcome, item `Cn1sc(Cl)cc1=O`
OUTPUT: false (0)

Each recorded value in this set is attributed to PubChem BioAssay (EPA / NIEHS).
